Task for the reader: assign each of the following compounds its reported MDCK-MDR1: % Recov B-A (%).
tested on: MDR1-MDCK cell monolayers; details: dog, MDCK-MDR1, 120 min, 5 μM, pH 7.4
Give your result in % as a bare value.

GET /values?readout=MDCK-MDR1: % Recov B-A (%)&item= CN(C)C(=O)c1cc(O)c(-c2cnc(N(C)[C@@H]3CC4CC[C@H](N4)[C@@H]3F)cn2)cc1F (single isomer, unassigned)
84

For the compound Cc1cc(-c2ccc(-c3cnc(N(C)[C@@H]4CC5CC[C@H](N5)[C@@H]4F)cn3)c(O)c2)cc(=O)[nH]1 (single isomer, unassigned) , what MDCK-MDR1: % Recov B-A (%) is on record?
71

Recorded MDCK-MDR1: % Recov B-A (%) for CNC(=O)/C=C/c1cc(O)c(-c2cnc(N(C3CC3)[C@H]3C[C@]4(C)CC[C@@](C)(N4)[C@H]3F)cn2)cc1F (single isomer, unassigned) , please?
89

Give the measured MDCK-MDR1: % Recov B-A (%) of CN(c1cnc(-c2cc(F)c(-c3ccn(C)c(=O)c3)cc2O)cn1)[C@@H]1CC2CCC[C@H](N2)[C@@H]1F (single isomer, unassigned) .
83

Which MDCK-MDR1: % Recov B-A (%) is listed for O=c1cc(-c2cc(O)c(-c3cnc(N(C4CC4)[C@@H]4CC5CC[C@H](N5)[C@@H]4F)cn3)cc2F)ccn1CF (single isomer, unassigned) ?
89

----------
test system: MDR1 (P-gp); assay: MDCK-MDR1 permeability assay, blood-brain-barrier penetration potential; details: dog, MDCK-MDR1, pH 7.4, MDCK-MDR1 Efflux Ratio
Property label: efflux ratio at 120 min, 5 μM
Lab note: jot down the number only; don't add units.

Requested read-out: efflux ratio at 120 min, 5 μM. Entry: CN(c1cnc(-c2ccc(-c3cn[nH]c3)cc2O)cn1)[C@@H]1C[C@@]2(C)CC[C@](C)(N2)[C@@H]1F
10

Would you mind telling me what efflux ratio at 120 min, 5 μM value was observed for Cn1ccc(-c2cc(O)c(-c3cnc(N(C4CC4)[C@H]4C[C@@H]5CCC(N5)[C@H]4F)cn3)cc2F)cc1=O (single isomer, unassigned) ?
33

Entry under review: Cn1cc(-c2ccc(-c3cnc(N(C4CC4)[C@@H]4C[C@@]5(C)CC[C@](C)(N5)[C@@H]4F)cn3)c(O)c2)cn1 . Reported efflux ratio at 120 min, 5 μM?
8

Entry under review: C[C@@]12CC[C@@](C)(N1)[C@@H](F)[C@@H](Oc1cnc(-c3ccc(-c4cn[nH]c4)cc3O)cn1)C2 . Reported efflux ratio at 120 min, 5 μM?
5

Field request: efflux ratio at 120 min, 5 μM | item: CN(c1cnc(-c2cc(F)c(-c3ccn(CF)c(=O)c3)cc2O)cn1)[C@H]1C[C@@H]2CCC(N2)[C@H]1F (single isomer, unassigned)
20

Reported efflux ratio at 120 min, 5 μM, molecule CN(c1cnc(-c2ccc(-c3ccn(C)c(=O)c3)cc2O)cn1)[C@@H]1CC2CCC[C@H](N2)[C@@H]1F (single isomer, unassigned) : ____
52

Given CN(C)C(=O)c1cc2cc(O)c(-c3cnc(N(C)[C@@H]4C[C@H]5CCC(N5)[C@@H]4F)cn3)cc2o1 (single isomer, unassigned) , state its recorded efflux ratio at 120 min, 5 μM.
24

I am curious: what efflux ratio at 120 min, 5 μM value has been reported for COc1cc(-c2cc(O)c(-c3cnc(N(C)[C@H]4C[C@@H]5CCC(N5)[C@H]4F)cn3)cc2F)cc(F)n1 (single isomer, unassigned) ?
2

Which efflux ratio at 120 min, 5 μM value is on record for CN(c1cnc(-c2cc(F)c(-c3cnn(CF)c3)cc2O)cn1)[C@@H]1CC2CC[C@H](N2)[C@@H]1F (single isomer, unassigned) ?
3

Returns the measured efflux ratio at 120 min, 5 μM for the input molecule. Input: CN(c1cnc(-c2ccc(-c3cnn(C)c3)cc2O)cn1)[C@@H]1C[C@H]2CCC(N2)[C@@H]1F (single isomer, unassigned)
3

So what's the measured efflux ratio at 120 min, 5 μM for this one? COc1cc(-c2cc(O)c(-c3cnc(N(C)[C@@H]4CC5N[C@H](C4)CC5(F)F)cn3)cc2F)cnn1 (single isomer, unassigned)
4

Could you tell me which efflux ratio at 120 min, 5 μM is on file for CNC(=O)c1cc(O)c(-c2cnc(N(C)[C@@H]3CC4CC[C@H](N4)[C@@H]3F)cn2)cc1F (single isomer, unassigned) ?
24

Hello, the source for this data is patent US11964971B2, in case you need it.
